Origin of measurements: patent US12495798B2

System: cotton
Test: Phytotoxicity test for upland field crops (foliar treatment test)
Type: in vivo
Details: 50 g ai/ha, Cotton (7 days after treatment)
I would appreciate it if you labelled entries YES when Foliar treatment phytotoxicity, Cotton is 3 or higher, otherwise NO.

[[record]]
molecule = "Cn1ncnc1COCc1nc(C(F)(F)F)ccc1C(=O)Nc1nnnn1C"
tested_system = "cotton"
group_label = "YES"

[[record]]
molecule = "Cn1nnc(COCc2nc(C(F)(F)F)ccc2C(=O)N(C(=O)c2ccccc2)c2nnnn2C)n1"
tested_system = "cotton"
group_label = "YES"

[[record]]
molecule = "Cn1nnnc1NC(=O)c1ccc(C(F)(F)F)nc1Sc1nnnn1C"
tested_system = "cotton"
group_label = "NO"

[[record]]
molecule = "CON(Cc1nnn(C)n1)Cc1nc(C(F)(F)F)ccc1C(=O)Nc1nnnn1C"
tested_system = "cotton"
group_label = "YES"

[[record]]
molecule = "CON(Cc1nnn(C)n1)c1nc(C(F)(F)F)ccc1C(=O)Nc1nnnn1C"
tested_system = "cotton"
group_label = "NO"

[[record]]
molecule = "Cn1nnc(COCc2nc(C(F)F)ccc2C(=O)Nc2nnnn2C)n1"
tested_system = "cotton"
group_label = "YES"

[[record]]
molecule = "Cn1nnc(COCc2nc(C(F)(F)Cl)ccc2C(=O)Nc2nnnn2C)n1"
tested_system = "cotton"
group_label = "YES"

[[record]]
molecule = "Cn1nnnc1CSc1nc(C(F)(F)F)ccc1C(=S)Nc1nnnn1C"
tested_system = "cotton"
group_label = "YES"

[[record]]
molecule = "CCOC(=O)OC(C)N(C(=O)c1ccc(C(F)(F)F)nc1COCc1nnn(C)n1)c1nnnn1C (stereo not shown)"
tested_system = "cotton"
group_label = "NO"

[[record]]
molecule = "Cn1nnc(COCc2nc(C(F)(F)C(F)(F)F)ccc2C(=O)Nc2nnnn2C)n1"
tested_system = "cotton"
group_label = "YES"

[[record]]
molecule = "Cn1nnc(COCc2nc(C(F)(F)F)ccc2C(=S)Nc2nnnn2C)n1"
tested_system = "cotton"
group_label = "YES"

[[record]]
molecule = "Cn1nnc(CSCc2nc(C(F)(F)F)ccc2C(=O)Nc2nnnn2C)n1"
tested_system = "cotton"
group_label = "NO"

[[record]]
molecule = "Cn1nnc(COc2nc(C(F)(F)F)ccc2C(=O)Nc2nnnn2C)n1"
tested_system = "cotton"
group_label = "YES"

[[record]]
molecule = "Cn1ncnc1COc1nc(C(F)(F)F)ccc1C(=O)Nc1nnnn1C"
tested_system = "cotton"
group_label = "YES"

[[record]]
molecule = "Cn1nnc(COCc2nc(C(F)(F)F)ccc2C(=O)N(c2nnnn2C)S(C)(=O)=O)n1"
tested_system = "cotton"
group_label = "YES"

[[record]]
molecule = "COC(=O)OC(C)N(C(=O)c1ccc(C(F)(F)F)nc1COCc1nnn(C)n1)c1nnnn1C (stereo not shown)"
tested_system = "cotton"
group_label = "NO"

[[record]]
molecule = "Cn1cnc(COCc2nc(C(F)F)ccc2C(=O)Nc2nnnn2C)n1"
tested_system = "cotton"
group_label = "YES"

[[record]]
molecule = "Cc1nc(COCc2nc(C(F)(F)F)ccc2C(=O)Nc2nnnn2C)nn1C"
tested_system = "cotton"
group_label = "NO"

[[record]]
molecule = "CN(Cc1nnn(C)n1)c1nc(C(F)(F)F)ccc1C(=O)Nc1nnnn1C"
tested_system = "cotton"
group_label = "NO"

[[record]]
molecule = "Cn1nnnc1NC(=O)c1ccc(C(F)(F)F)nc1OCc1nnnn1C(F)F"
tested_system = "cotton"
group_label = "NO"


====

Test system: corn
Experiment: Phytotoxicity test for upland field crops (foliar treatment test)
Assay type: in vivo
Set-up: key: 0 (no harm); 9 (complete withered)
Conditions: 50 g ai/ha, Corn (14 days after treatment)
reported-metric: Foliar treatment phytotoxicity, Corn

[[record]]
molecule = "CON(Cc1nnn(C)n1)c1nc(C(F)(F)F)ccc1C(=O)Nc1nnnn1C"
reported_metric = "Foliar treatment phytotoxicity, Corn"
val = 0

[[record]]
molecule = "Cn1nnc(COCc2nc(C(F)(F)F)ccc2C(=O)N(c2nnnn2C)S(C)(=O)=O)n1"
reported_metric = "Foliar treatment phytotoxicity, Corn"
val = 3

[[record]]
molecule = "CCn1nnc(COCc2nc(C(F)(F)F)ccc2C(=O)Nc2nnnn2C)n1"
reported_metric = "Foliar treatment phytotoxicity, Corn"
val = 0

[[record]]
molecule = "Cn1nnc(COCc2nc(C(F)(F)F)ccc2C(=S)Nc2nnnn2C)n1"
reported_metric = "Foliar treatment phytotoxicity, Corn"
val = 4

[[record]]
molecule = "Cn1nnnc1NC(=O)c1ccc(C(F)(F)F)nc1COCc1nc(C(F)(F)F)n(C)n1"
reported_metric = "Foliar treatment phytotoxicity, Corn"
val = 0

[[record]]
molecule = "Cn1nc(COCc2nc(C(F)(F)F)ccc2C(=O)Nc2nnnn2C)nc1Cl"
reported_metric = "Foliar treatment phytotoxicity, Corn"
val = 0

[[record]]
molecule = "C=Cc1nc(COCc2nc(C(F)(F)F)ccc2C(=O)Nc2nnnn2C)nn1C"
reported_metric = "Foliar treatment phytotoxicity, Corn"
val = 0

[[record]]
molecule = "CCCn1nnnc1NC(=O)c1ccc(C(F)(F)F)nc1COCc1ncn(C)n1"
reported_metric = "Foliar treatment phytotoxicity, Corn"
val = 0

[[record]]
molecule = "CON(Cc1nnn(C)n1)Cc1nc(C(F)(F)F)ccc1C(=O)Nc1nnnn1C"
reported_metric = "Foliar treatment phytotoxicity, Corn"
val = 0

[[record]]
molecule = "C=CCn1nnnc1NC(=O)c1ccc(C(F)(F)F)nc1COCc1nnn(CC)n1"
reported_metric = "Foliar treatment phytotoxicity, Corn"
val = 0

[[record]]
molecule = "Cn1nnc(CSCc2nc(C(F)F)ccc2C(=O)Nc2nnnn2C)n1"
reported_metric = "Foliar treatment phytotoxicity, Corn"
val = 0

[[record]]
molecule = "COC(=O)OC(C)N(C(=O)c1ccc(C(F)(F)F)nc1COCc1ncn(C)n1)c1nnnn1C (stereo not shown)"
reported_metric = "Foliar treatment phytotoxicity, Corn"
val = 0

[[record]]
molecule = "Cn1nnc(COc2nc(C(F)(F)F)ccc2C(=O)Nc2nnnn2C)n1"
reported_metric = "Foliar treatment phytotoxicity, Corn"
val = 1

[[record]]
molecule = "Cn1ncnc1COc1nc(C(F)(F)F)ccc1C(=O)Nc1nnnn1C"
reported_metric = "Foliar treatment phytotoxicity, Corn"
val = 0

[[record]]
molecule = "Cn1nc(COCc2nc(C(F)(F)F)ccc2C(=O)Nc2nnnn2C)nc1C#N"
reported_metric = "Foliar treatment phytotoxicity, Corn"
val = 0

[[record]]
molecule = "Cn1nnnc1NC(=O)c1ccc(C(F)(F)F)nc1COCc1nc(S(C)(=O)=O)n(C)n1"
reported_metric = "Foliar treatment phytotoxicity, Corn"
val = 0


====

Tested on: corn
Test: Phytotoxicity test for upland field crops (foliar treatment test)
Assay type: in vivo
Parameters: key: 0 (no harm); 9 (complete withered)
Conditions: 100 g ai/ha, Corn (7 days after treatment)
A collection of compounds and their measured Foliar treatment phytotoxicity, Corn
reported-metric: Foliar treatment phytotoxicity, Corn

[[record]]
compound = "Cn1nnc(CSCc2nc(C(F)(F)F)ccc2C(=S)Nc2nnnn2C)n1 [Compound No. 2-107]"
reported_metric = "Foliar treatment phytotoxicity, Corn"
val = 0

[[record]]
compound = "Cn1nnc(COCc2nc(C(F)(F)C(F)(F)F)ccc2C(=O)Nc2nnnn2C)n1 [Compound No. 2-81]"
reported_metric = "Foliar treatment phytotoxicity, Corn"
val = 2

[[record]]
compound = "COC(=O)OC(C)N(C(=O)c1ccc(C(F)(F)F)nc1CSCc1nnn(C)n1)c1nnnn1C (stereo not shown) [Compound No. 4-3]"
reported_metric = "Foliar treatment phytotoxicity, Corn"
val = 1

[[record]]
compound = "CCn1nnnc1NC(=O)c1ccc(C(F)(F)F)nc1COCc1nc(C(F)(F)F)n(C)n1 [Compound No. 2-119]"
reported_metric = "Foliar treatment phytotoxicity, Corn"
val = 0


====

System: wheat
Experiment: Phytotoxicity test for upland field crops (foliar treatment test)
Assay type: in vivo
Details: 50 g ai/ha, Wheat (7 days after treatment)
A collection of compounds and their measured Foliar treatment phytotoxicity, Wheat
reported-metric: Foliar treatment phytotoxicity, Wheat

[[record]]
compound = "Cn1nnnc1NC(=O)c1ccc(C(F)(F)F)nc1COCc1nc(S(C)(=O)=O)n(C)n1 [Compound No. 2-132]"
val = 3

[[record]]
compound = "C=C(C)c1nc(COCc2nc(C(F)(F)F)ccc2C(=O)Nc2nnnn2C)nn1C [Compound No. 2-128]"
val = 0

[[record]]
compound = "Cc1nc(COCc2nc(C(F)(F)F)ccc2C(=O)Nc2nnnn2C)nn1C [Compound No. 2-116]"
val = 0

[[record]]
compound = "C=CCn1nnnc1NC(=O)c1ccc(C(F)(F)F)nc1COCc1ncn(C)n1 [Compound No. 2-115]"
val = 0


====

System: soybean
Assay: Phytotoxicity test for field crops (soil treatment test)
Type: in vivo
Details: 100 g ai/ha; Soybean (10 days after treatment)
A collection of molecules and their measured Soil treatment phytotoxicity, Soybean
reported-metric: Soil treatment phytotoxicity, Soybean

[[record]]
smiles_code = "Cn1nnnc1COCc1nc(C(F)(F)F)ccc1C(=O)Nc1nnnn1C"
val = 3

[[record]]
smiles_code = "Cn1nnc(COCc2nc(C(F)(F)Cl)ccc2C(=O)Nc2nnnn2C)n1"
val = 0

[[record]]
smiles_code = "Cn1ncnc1COCc1nc(C(F)(F)F)ccc1C(=O)Nc1nnnn1C"
val = 0

[[record]]
smiles_code = "Cn1nnc(COCc2nc(C(F)(F)C(F)(F)F)ccc2C(=O)Nc2nnnn2C)n1"
val = 0

[[record]]
smiles_code = "Cn1nnc(COCc2nc(C(F)(F)F)ccc2C(=O)Nc2nnnn2C)n1"
val = 3

[[record]]
smiles_code = "Cn1nnnc1COc1nc(C(F)(F)F)ccc1C(=S)Nc1nnnn1C"
val = 0

[[record]]
smiles_code = "Cn1ncnc1COc1nc(C(F)(F)F)ccc1C(=O)Nc1nnnn1C"
val = 0

[[record]]
smiles_code = "CON(Cc1nnn(C)n1)c1nc(C(F)(F)F)ccc1C(=O)Nc1nnnn1C"
val = 7

